- assay notes: Cytotoxicity, colorimetric tetrazolium assay
- Format: cell-based
- settings: human, HepG2 cells (HB-8065), one hour with compound in serum-free media
Each entry below lists one item and its recorded EC50 at 1 h value.
measured parameter: EC50 at 1 h (µg/mL)

>>> result("NCC#Cc1cc(-n2ccc3cc([N+](=O)[O-])ccc32)cc(C(F)(F)F)c1 [Compound 115]")
74.3
>>> result("N=C(N)NCCCCC(=O)Nc1cc(C(F)(F)F)cc(NC(=O)Nc2ccc(Oc3ccc(NCCN)c(C(F)(F)F)c3)c(CCCN)c2)c1SCCN [Compound 108]")
395
>>> result("N=C(N)NCCCCC(=O)Nc1cc(C(F)(F)F)cc(NC(=O)Nc2ccc(Oc3ccc(NCCN)c(C(F)(F)F)c3)c(CCCN)c2)c1O[C@@H]1CCNC1 [Compound 109]")
409
